Biological target: T1, human IL-17A homodimer, bacterially expressed construct (residues 40-155 with GSEDS spacer) (human, UniProt Q16552 40-155)
T1 chain: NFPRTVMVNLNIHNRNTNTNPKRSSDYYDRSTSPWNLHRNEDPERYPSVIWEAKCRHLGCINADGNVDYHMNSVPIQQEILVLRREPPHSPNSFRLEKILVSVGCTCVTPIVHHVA
Assay: BLI, biotinylated VHH immobilized on streptavidin sensors, IL-17 as analyte (10, 20, 40 nM), mass transport fit; apparent value, avidity possible;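 note: wavelength shift (nm) signal, 800 s association then 800 s dissociation, reference from parallel sensors without VHH, avidity from immobilized VHH may lower apparent off-rates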
pKd: −log10 of the molar value.
Each entry below carries its reported pKd.

Looking up Re42B03 with C-terminal Avi-Biotin-tag, biotinylated (VHH, biotin on the C-terminal Avi-tag (BirA), not shown: C-terminal Avi-Biotin-tag) VHH: QVQLVESGGGLVQAGGSLRLSCAASGLTGSSYAMGWFRQAPGKEREFVAAISWISGGTKYTDSVKDRFTMSRDYAKKQVYLEMNSLKPEDTAVYYCNDMPYGLDTRMDEYVYWGQGTQVTVSS , I see its pKd listed as ≥ 11.00

The reported pKd of the binder Re42B04 with C-terminal Avi-Biotin-tag, biotinylated (VHH, biotin on the C-terminal Avi-tag (BirA), not shown: C-terminal Avi-Biotin-tag) VHH: QVQLVESGGGLVQVGGSLRLSCEVSGLPVSSYAMGWFRQAPEKEREFVAAISWIGGDSRYAHFVKGRFTISRDNAKNTVHLQMDSLKPEDTAVYYCNDMPYGLDTRMDEYEYWGLGTQVTVSS was ≥ 11.00
